# Assayed system: Myc proto-oncogene protein (Homo sapiens, UniProt P01106)
# Sequence (P01106 whole entry, the tested form may be a part): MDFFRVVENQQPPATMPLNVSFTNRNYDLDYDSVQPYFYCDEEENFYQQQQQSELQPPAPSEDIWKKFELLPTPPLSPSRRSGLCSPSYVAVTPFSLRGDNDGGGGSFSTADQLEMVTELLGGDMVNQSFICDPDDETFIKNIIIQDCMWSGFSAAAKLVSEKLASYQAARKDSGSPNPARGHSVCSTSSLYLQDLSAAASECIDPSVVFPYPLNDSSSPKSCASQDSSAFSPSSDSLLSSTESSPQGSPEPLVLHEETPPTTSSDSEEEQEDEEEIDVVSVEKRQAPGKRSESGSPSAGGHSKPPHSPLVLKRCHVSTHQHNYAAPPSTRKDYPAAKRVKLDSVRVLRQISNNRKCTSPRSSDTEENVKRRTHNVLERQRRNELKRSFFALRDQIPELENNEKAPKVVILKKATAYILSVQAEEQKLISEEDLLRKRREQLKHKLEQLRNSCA
# Protocol notes: Binding affinity to recombinant full-length N-terminal hexahistidine-tagged c-Myc (353 to 437 residues) bHLH-ZIP domain (unknown origin) expressed in Escherichia coli BL21 DE3 (pLysS) by fluorescence polarization assay
Measured endpoint: Kd (nM)
Numbers only, in nM.

CC(=O)NCCCCCOC(=O)c1ccc(Nc2ccc([N+](=O)[O-])c3nonc23)cc1; 1700

Required: Kd, one value per compound below.
1. O=C(NCCCCCN1C(=O)S/C(=C\c2ccc(F)cc2)C1=O)c1ccc(Nc2ccc([N+](=O)[O-])c3nonc23)cc1
2. O=C(CNC(=O)c1ccc(Nc2ccc([N+](=O)[O-])c3nonc23)cc1)NCCCCCNC(=O)c1ccc(/C=C2\SC(=S)NC2=O)cc1
3. CCc1ccc(/C=C2\SC(=O)N(CCCCCNC(=O)CNC(=O)c3ccc(Nc4ccc([N+](=O)[O-])c5nonc45)cc3)C2=O)cc1

[3.6, 320, 3.6]

Data provenance is ChEMBL document CHEMBL3991946.
